Provenance of the data: patent US20030203908A1

Target: human DHFR (Homo sapiens, UniProt P00374)
Construct: made in house; host or cells: E. coli M15
Sequence (P00374 whole entry): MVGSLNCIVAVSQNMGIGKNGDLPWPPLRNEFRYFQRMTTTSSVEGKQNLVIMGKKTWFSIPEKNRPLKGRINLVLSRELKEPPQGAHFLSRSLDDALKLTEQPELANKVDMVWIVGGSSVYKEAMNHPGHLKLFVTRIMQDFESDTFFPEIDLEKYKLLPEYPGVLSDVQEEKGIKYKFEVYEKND
Assay: Inhibition of human DHFR (I50-derived Ki);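 further: recombinant human DHFR expressed in E. coli and purified by methotrexate affinity chromatography, enzyme activity followed spectrophotometrically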
Assay type: biochemical
Details: Human Ki (I50)(nM)
readout: Ki (nM)
Give bare numbers, in nM.

input: # query: Ki of entry Cl.NC1=NCN(c2ccc(Cl)cc2)C(N)=N1 [(Ia) R2=H, hydrochloride]
output: 1210

----------
Hi there, I'd appreciate the recorded pIC50 for every entry that follows.
System: wild-type (TM4/8.2) strain of P. falciparum
Assay: microbe, parasite or virus in culture
Assay type: cell-based, Plasmodium falciparum
Details: wild-type strain TM4/8.2
Answers are plain numbers, as −log10 of the molar value.

[
  {
    "compound": "CCCCOc1ccc(C2N=C(N)N=C(N)N2OCCCOc2cc(Cl)c(Cl)cc2Cl)cc1 (stereo not shown)",
    "experimental_target": "wild-type (TM4/8.2) strain of P. falciparum",
    "meas_value": 5.83
  }
]

List pIC50 for every entry below, keeping the order given.
1. CCCOc1ccc(C2N=C(N)N=C(N)N2OCCCOc2cc(Cl)c(Cl)cc2Cl)cc1 (stereo not shown)
2. CCCOc1cccc(C2N=C(N)N=C(N)N2c2cccc(/C=C/c3ccc(Cl)cc3Cl)c2)c1 (stereo not shown)
3. NC1=NC(c2cccc(Oc3ccccc3)c2)N(c2cccc(/C=C/c3ccc(Cl)cc3Cl)c2)C(N)=N1 (stereo not shown)
4. NC1=NC(c2ccc(Cl)cc2)N(c2ccc(Cl)cc2)C(N)=N1 (stereo not shown)

output:
1: 6.02; 2: 4.60; 3: 5.39; 4: 6.30

input: # query: pIC50 of entry NC1=NC(c2cccc(OCc3ccccc3)c2)N(c2cccc(COc3cc(Cl)c(Cl)cc3Cl)c2)C(N)=N1 (stereo not shown)
output: 4.85
